target: SARS-CoV-2 spike receptor binding domain (RBD), antigen of Example 10 (SARS-CoV-2, UniProt P0DTC2 319-541)
Assignment: determine reported Kd for the given binders.
One number for each entry, in nM.

{"Binder": "IMPI-068 (antibody, V domains shown) VH: QVQLVESGGDVVQPGRSLRLSCAASGFTFSRYGMHWVRQAPGKGLEWVAVISYDGSDKYYADSVKGRFTISRDNSKNTLYLQMNSLRAEDTAVYYCAKQLPLYYYYYGMDVWGQGTTVTVSS VL: AIQLTQSPSSLSASVGDRVTITCRASQGISSALAWYQQKPGKAPNLLIYDASSLESGVPSRFSGSGSGTDFTLTISSLQPEDFATYYCQQFNIYPHTFGPGTKVDIK", "Recorded Number": 9.47}

Now examine the next entry.
Entry IMPI-060 (antibody, V domains shown) VH: EVQLVESGGGLIQPGGSLRLSCAASGVTVSSNYMSWVRQAPGKGLEWVSVIYSGGSTFYADSVKGRFTISRDNSKNTLYLQMNSLRAEDTAVYYCARDLSYYGMDVWGQGTTVTVSS VL: DIQLTQSPSFLSASVGDRVTITCWASQGISSYLAWYQQKPGKAPKLLIYAASTLQSGVPSKFSGSGSGTEFTLTISSLQPEDFATYYCQQLNSYPSSFGQGTKLEIK ; Kd = 141
